# measured-on: Transporter (Rattus norvegicus, UniProt Q63380)
# Sequence (Q63380 whole entry): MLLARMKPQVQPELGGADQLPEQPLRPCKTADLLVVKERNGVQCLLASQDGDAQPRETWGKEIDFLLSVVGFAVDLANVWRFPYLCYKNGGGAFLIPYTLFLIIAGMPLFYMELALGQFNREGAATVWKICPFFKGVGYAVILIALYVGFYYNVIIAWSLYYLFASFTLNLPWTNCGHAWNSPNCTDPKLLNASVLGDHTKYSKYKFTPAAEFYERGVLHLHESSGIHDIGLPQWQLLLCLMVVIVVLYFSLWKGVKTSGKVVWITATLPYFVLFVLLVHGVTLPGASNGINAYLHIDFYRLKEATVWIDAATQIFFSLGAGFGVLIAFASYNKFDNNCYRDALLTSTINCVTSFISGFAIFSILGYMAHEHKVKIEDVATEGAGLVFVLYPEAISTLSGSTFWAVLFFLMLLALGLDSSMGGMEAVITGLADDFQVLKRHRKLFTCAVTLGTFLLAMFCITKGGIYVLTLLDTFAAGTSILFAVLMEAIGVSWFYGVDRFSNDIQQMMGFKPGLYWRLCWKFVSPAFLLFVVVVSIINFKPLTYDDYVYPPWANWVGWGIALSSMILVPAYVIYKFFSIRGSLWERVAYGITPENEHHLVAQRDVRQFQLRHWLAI
measure-name: Ki (nM)

[1] Ic1ccccc1O[C@@H](c1ccccc1)[C@H]1CNCCO1
[2] Ic1ccc(O[C@@H](c2ccccc2)[C@H]2CNCCO2)cc1
Name the one with the greater Ki value, either 1 or 2 as given. The response must carry the label of the picked entry. 2
(2: 1100 nM, 1: 8.4 nM)

* * *

# measured-on: Sodium-dependent serotonin transporter (Rattus norvegicus)
# Sequence (P31652 whole entry): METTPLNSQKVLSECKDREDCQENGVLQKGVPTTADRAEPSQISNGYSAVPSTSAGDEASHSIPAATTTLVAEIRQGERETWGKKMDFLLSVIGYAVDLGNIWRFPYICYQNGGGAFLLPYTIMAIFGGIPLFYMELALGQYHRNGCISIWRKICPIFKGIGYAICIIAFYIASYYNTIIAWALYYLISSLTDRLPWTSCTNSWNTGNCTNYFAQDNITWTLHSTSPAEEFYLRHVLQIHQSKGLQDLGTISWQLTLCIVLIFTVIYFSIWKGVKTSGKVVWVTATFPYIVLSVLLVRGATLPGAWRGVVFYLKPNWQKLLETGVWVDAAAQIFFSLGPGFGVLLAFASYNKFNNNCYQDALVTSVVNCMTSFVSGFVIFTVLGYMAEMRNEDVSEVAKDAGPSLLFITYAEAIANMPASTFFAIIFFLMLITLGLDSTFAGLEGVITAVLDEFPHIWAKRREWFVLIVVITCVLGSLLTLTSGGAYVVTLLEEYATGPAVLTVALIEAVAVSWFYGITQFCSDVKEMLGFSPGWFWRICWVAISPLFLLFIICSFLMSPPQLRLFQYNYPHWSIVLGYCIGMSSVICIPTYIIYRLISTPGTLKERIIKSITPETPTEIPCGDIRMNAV
measure-name: Ki (µM)
Quick note: give the figure in µM, leave out the unit.

Output Ki of `Ic1ccccc1O[C@@H](c1ccccc1)[C@H]1CNCCO1` 0.0515

* * *

# measured-on: Sodium-dependent dopamine transporter (Rattus norvegicus, UniProt P23977)
# Sequence (P23977 whole entry): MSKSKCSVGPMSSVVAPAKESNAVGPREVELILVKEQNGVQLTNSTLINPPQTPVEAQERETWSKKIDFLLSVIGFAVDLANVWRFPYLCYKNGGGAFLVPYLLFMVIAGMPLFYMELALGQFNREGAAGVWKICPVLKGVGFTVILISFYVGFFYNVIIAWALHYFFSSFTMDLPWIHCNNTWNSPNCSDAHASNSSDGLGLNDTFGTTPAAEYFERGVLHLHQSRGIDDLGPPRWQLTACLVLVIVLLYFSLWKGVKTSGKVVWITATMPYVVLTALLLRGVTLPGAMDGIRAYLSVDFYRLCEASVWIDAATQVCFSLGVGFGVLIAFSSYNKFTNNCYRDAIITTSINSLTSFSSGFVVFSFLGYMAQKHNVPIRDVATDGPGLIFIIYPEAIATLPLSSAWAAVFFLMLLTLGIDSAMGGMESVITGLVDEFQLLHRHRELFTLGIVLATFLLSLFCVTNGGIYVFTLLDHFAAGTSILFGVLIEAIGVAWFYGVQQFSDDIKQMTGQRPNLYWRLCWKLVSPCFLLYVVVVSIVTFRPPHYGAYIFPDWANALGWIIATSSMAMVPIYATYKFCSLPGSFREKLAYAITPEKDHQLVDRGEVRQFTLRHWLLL
measure-name: pKi
When answering, recall that pKi equals minus log10 of the concentration in mol/L, and write that number alone.

Give pKi for the following compound: `Ic1ccccc1O[C@@H](c1ccccc1)[C@H]1CNCCO1` 6.28

The values you see were collected from BindingDB's records for doi:10.1016/j.bmcl.2009.07.064.
